In this section we review reported half-life values for a set of molecules.
# Assay Remarks: Half life in Sprague-Dawley rat at 10 mg/kg, po
# Type: ADME, organism-based
# Set-up: dose 10 mg/kg, route oral
# Experimental Context: in vivo
Please report the result as a number followed by the unit.

{"Molecule": "CC1(C)CC(=O)C([C@H]2C3=C(CC(C)(C)CC3=O)Oc3ccccc32)=C(O)C1", "Measure Name": "half-life", "Result": "2.7 h"}

In the following, a different molecule is considered.
# lookup: half-life of CC1(C)CC(=O)C(C2C3=C(CC(C)(C)CC3=O)Oc3ccccc32)=C(O)C1 (racemic)
5.2 h
